Data provenance: patent US20110009403A1

compounds and their reported IC50
assay.system: mTOR (Homo sapiens, UniProt P42345)
Sequence (P42345 1382-2549 limits assumed): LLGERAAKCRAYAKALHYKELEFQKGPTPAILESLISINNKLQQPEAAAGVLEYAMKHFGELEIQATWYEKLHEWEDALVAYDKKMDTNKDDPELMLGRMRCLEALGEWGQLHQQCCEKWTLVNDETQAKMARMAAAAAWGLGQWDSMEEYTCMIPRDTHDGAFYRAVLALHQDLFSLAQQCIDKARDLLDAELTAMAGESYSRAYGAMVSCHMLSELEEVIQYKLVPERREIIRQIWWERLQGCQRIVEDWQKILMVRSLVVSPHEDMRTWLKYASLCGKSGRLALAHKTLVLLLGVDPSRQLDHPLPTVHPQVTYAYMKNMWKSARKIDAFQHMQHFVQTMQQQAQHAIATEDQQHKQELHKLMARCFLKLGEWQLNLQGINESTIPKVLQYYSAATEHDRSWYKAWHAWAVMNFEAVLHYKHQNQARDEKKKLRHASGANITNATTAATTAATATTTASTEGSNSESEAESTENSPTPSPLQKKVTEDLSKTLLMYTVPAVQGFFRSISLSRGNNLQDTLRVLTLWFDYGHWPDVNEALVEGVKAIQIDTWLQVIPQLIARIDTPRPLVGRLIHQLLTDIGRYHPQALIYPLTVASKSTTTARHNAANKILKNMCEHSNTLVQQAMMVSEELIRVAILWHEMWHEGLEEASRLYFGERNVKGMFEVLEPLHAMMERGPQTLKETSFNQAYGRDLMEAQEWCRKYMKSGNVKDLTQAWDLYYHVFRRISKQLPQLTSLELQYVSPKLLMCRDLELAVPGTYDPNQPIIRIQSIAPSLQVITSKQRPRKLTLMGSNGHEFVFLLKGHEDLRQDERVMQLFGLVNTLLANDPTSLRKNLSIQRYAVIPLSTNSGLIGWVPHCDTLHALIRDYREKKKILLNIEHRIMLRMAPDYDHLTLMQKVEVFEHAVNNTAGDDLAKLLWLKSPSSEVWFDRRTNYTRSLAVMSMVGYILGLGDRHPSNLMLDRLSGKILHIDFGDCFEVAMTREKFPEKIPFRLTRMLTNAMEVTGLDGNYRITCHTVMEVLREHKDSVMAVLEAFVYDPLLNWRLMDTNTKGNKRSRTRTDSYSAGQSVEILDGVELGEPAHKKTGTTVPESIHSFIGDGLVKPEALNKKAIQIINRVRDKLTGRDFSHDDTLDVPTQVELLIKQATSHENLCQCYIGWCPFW

Recorded results for 4 compounds are shown here.
[[record]]
compound = "N#CCn1cnc2c(-c3ccc(O)nc3)nc(N3CCOCC3)nc21"
property = "IC50"
result = "> 5000 nM"

[[record]]
compound = "Oc1cccc(-c2nc(N3CCOCC3)nc3c2ncn3Cc2cc(F)cc(F)c2)c1"
property = "IC50"
result = "< 1000 nM"

[[record]]
compound = "CS(=O)(=O)Nc1cccc(Cn2cnc3c(-c4cccc(O)c4)nc(N4CCOCC4)nc32)c1"
property = "IC50"
result = "> 5000 nM"

[[record]]
compound = "Nc1cccc(-c2nc(N3CCOCC3)nc3c2ncn3Cc2ccccc2)c1"
property = "IC50"
result = "1000 to 5000 nM"


QUERY: What is its IC50 for mTOR (Homo sapiens, UniProt P42345)? Entry: Oc1cccc(-c2nc(N3CCOCC3)nc3c2ncn3C2CCOC2)c1 (centres unmarked)
RESULT: < 1000 nM

---

As an illustration, consider measured IC50 for compounds on mTOR (Homo sapiens, UniProt P42345).

Recorded results for 3 compounds are shown here.
[[record]]
compound = "CCC(C)n1cnc2c(-c3cccc4[nH]ncc34)nc(N3CCOCC3)nc21 (stereo not drawn)"
property = "IC50"
result = "< 1 µM"

[[record]]
compound = "O=C(Cc1cccnc1)N1CCC(n2cnc3c(-c4cccc5[nH]ccc45)nc(N4CCOCC4)nc32)CC1"
property = "IC50"
result = "< 1 µM"

[[record]]
compound = "CCC(C)n1cnc2c(-c3cccc4[nH]ccc34)nc(N3CCOCC3)nc21 (stereo not drawn)"
property = "IC50"
result = "< 1 µM"


QUERY: What is its IC50 for mTOR (Homo sapiens, UniProt P42345)? Entry: CC(C)n1cnc2c(-c3cccc4[nH]ccc34)nc(N3CCOCC3)nc21
RESULT: < 1 µM

QUERY: What is its IC50 for mTOR (Homo sapiens, UniProt P42345)? Entry: CC(C)Cn1cnc2c(-c3cccc(O)c3)nc(N3CCOCC3)nc21
RESULT: < 1 µM

QUERY: What is its IC50 for mTOR (Homo sapiens, UniProt P42345)? Entry: O=c1[nH]c2ccc(-c3nc(N4CCOCC4)nc4c3ncn4CC3CC3)cc2[nH]1
RESULT: > 5 µM

QUERY: What is its IC50 for mTOR (Homo sapiens, UniProt P42345)? Entry: Oc1cccc(-c2nc(N3CCOCC3)nc3c2ncn3Cc2c(F)cccc2F)c1
RESULT: < 1 µM

QUERY: What is its IC50 for mTOR (Homo sapiens, UniProt P42345)? Entry: O=C(Cn1cnc2c(-c3cccc(O)c3)nc(N3CCOCC3)nc21)N1CCCC1
RESULT: < 1 µM

QUERY: What is its IC50 for mTOR (Homo sapiens, UniProt P42345)? Entry: C=CCCn1cnc2c(-c3ccc4cc[nH]c4c3)nc(N3CCOCC3)nc21
RESULT: 1 to 5 µM

QUERY: What is its IC50 for mTOR (Homo sapiens, UniProt P42345)? Entry: c1ccc(Cn2cnc3c(-c4ccc5[nH]ccc5c4)nc(N4CCOCC4)nc32)cc1
RESULT: 1 to 5 µM

QUERY: What is its IC50 for mTOR (Homo sapiens, UniProt P42345)? Entry: CC1CN(c2nc(-c3cccc4[nH]ccc34)c3ncn(CC#N)c3n2)CC(C)O1 (stereo not drawn)
RESULT: > 5 µM

QUERY: What is its IC50 for mTOR (Homo sapiens, UniProt P42345)? Entry: CCC(C)n1c(SC)nc2c(-c3cccc(O)c3)nc(N3CCOCC3)nc21 (stereo not drawn)
RESULT: < 1 µM

QUERY: What is its IC50 for mTOR (Homo sapiens, UniProt P42345)? Entry: CC(=O)Nc1cccc(-c2nc(N3CCOCC3)nc3c2ncn3Cc2ccccc2)c1
RESULT: > 5 µM

QUERY: What is its IC50 for mTOR (Homo sapiens, UniProt P42345)? Entry: O=C(Nc1ccc(Cl)cc1)N1CCC(n2cnc3c(-c4cccc5[nH]ccc45)nc(N4CCOCC4)nc32)CC1
RESULT: < 1 µM

QUERY: What is its IC50 for mTOR (Homo sapiens, UniProt P42345)? Entry: CC(C)NC(=O)Cn1cnc2c(-c3cccc(O)c3)nc(N3CCOCC3)nc21
RESULT: 1 to 5 µM

QUERY: What is its IC50 for mTOR (Homo sapiens, UniProt P42345)? Entry: N#Cc1cccc(Cn2cnc3c(-c4cccc(O)c4)nc(N4CCOCC4)nc32)c1
RESULT: < 1 µM

QUERY: What is its IC50 for mTOR (Homo sapiens, UniProt P42345)? Entry: O=C(Cn1cnc2c(-c3cccc(O)c3)nc(N3CCOCC3)nc21)NC1CC1
RESULT: 1 to 5 µM

QUERY: What is its IC50 for mTOR (Homo sapiens, UniProt P42345)? Entry: CCC(C)n1c(NCCOC)nc2c(-c3cccc(O)c3)nc(N3CCOCC3)nc21 (stereo not drawn)
RESULT: < 1 µM

QUERY: What is its IC50 for mTOR (Homo sapiens, UniProt P42345)? Entry: CCC(C)n1c(S(C)(=O)=O)nc2c(-c3cccc(O)c3)nc(N3CCOCC3)nc21 (stereo not drawn)
RESULT: < 1 µM

QUERY: What is its IC50 for mTOR (Homo sapiens, UniProt P42345)? Entry: Nc1ccc(-c2nc(N3CCOCC3)nc3c2ncn3Cc2ccccc2)cc1N
RESULT: 1 to 5 µM

QUERY: What is its IC50 for mTOR (Homo sapiens, UniProt P42345)? Entry: CCC(C)n1c(C)nc2c(-c3cccc(O)c3)nc(N3CCOCC3)nc21 (stereo not drawn)
RESULT: < 1 µM

QUERY: What is its IC50 for mTOR (Homo sapiens, UniProt P42345)? Entry: CCC(C)n1c(Br)nc2c(-c3cccc(O)c3)nc(N3CCOCC3)nc21 (stereo not drawn)
RESULT: < 1 µM

QUERY: What is its IC50 for mTOR (Homo sapiens, UniProt P42345)? Entry: c1cc(-c2nc(N3CCOCC3)nc3c2ncn3CC2CCCCC2)c2cc[nH]c2c1
RESULT: 1 to 5 µM

QUERY: What is its IC50 for mTOR (Homo sapiens, UniProt P42345)? Entry: CCC(C#N)n1cnc2c(-c3ccc(N)nc3)nc(N3CCOCC3)nc21 (stereo not drawn)
RESULT: < 1 µM

QUERY: What is its IC50 for mTOR (Homo sapiens, UniProt P42345)? Entry: Oc1cccc(-c2nc(N3CCOCC3)nc3c2ncn3CC2CC2)c1
RESULT: < 1 µM

QUERY: What is its IC50 for mTOR (Homo sapiens, UniProt P42345)? Entry: COCCn1cnc2c(-c3cccc(O)c3)nc(N3CCOCC3)nc21
RESULT: < 1 µM

QUERY: What is its IC50 for mTOR (Homo sapiens, UniProt P42345)? Entry: CCOC(=O)Cn1cnc2c(-c3cccc(O)c3)nc(N3CCOCC3)nc21
RESULT: < 1 µM
